TGI reference
Test system: A549 NSCLC
method-summary: NCI tumour cell line growth inhibition, 48 h

// solved cases for TGI follow
compound: CCOC(=O)c1cc2c([nH]1)c(OC(C)=O)cc1c2ccn1Cc1ccccc1
result: > 100 µM
--
compound: CC[O-].CC[O-].CN(C)c1ccc([O-])cc1.CN(C)c1ccc([O-])cc1.[Ti+4]
result: > 100 µM
--
compound: COC(=O)C(/C(=N/NC(N)=O)C(=O)Nc1c(C)cccc1C(C)(C)C)c1nc2ccc(Cl)cc2[nH]c1=O (stereo not given)
result: > 100 µM
--
compound: CCCCCCC1=NOC(C(c2cc[nH]c2)N(C)[C@H](C(=O)OC)C(C)C)C1 (stereo not given in full)
result: > 100 µM

Now examine the next entry.
## Task Please indicate TGI recorded for COC(=O)C1(CCC(=O)N(C)c2ccccc2)NNC2C(=O)N(c3ccccc3)C(=O)C21 (stereo not given)
## Result > 10 µM

* * *

# maps each entry to its TGI
System: OVCAR-4 ovarian
method-summary: NCI tumour cell line growth inhibition, 48 h

molecule: O=C(Nc1cc(Cl)c(Cl)cc1Cl)C(=O)C(C(=O)c1ccccc1)C1OC(=O)c2ccccc21 (centres undefined)
observable: TGI
result: > 100 µM

molecule: COCCOc1nc(-c2ccccc2)nc2ccccc12
observable: TGI
result: > 100 µM

molecule: CC(NC(=O)OC(C)(C)C)C(=O)NC1CCCC1 (centres undefined)
observable: TGI
result: > 100 µM

molecule: CN(C)N=Nc1cn[nH]c1C(N)=O
observable: TGI
result: > 100 µM

molecule: O=C(Nc1ccccc1SC(/C=C/NNC1=NC(c2ccccc2)C(c2ccccc2)=NN1)c1ccccc1)c1ccc(Cl)cc1Cl (centres undefined)
observable: TGI
result: 94.8 µM

molecule: CCCCc1ccc(Nc2nc3c(ncn3COCCBr)c(=O)[nH]2)cc1
observable: TGI
result: > 100 µM

molecule: COc1cc(C(=O)O[C@H]2CCC3CCC2N3C)cc(OC)c1OC (some centres undefined)
observable: TGI
result: > 100 µM

molecule: COc1ccc2c(c1OC)OC[C@@H](C1=CC(=O)C=C(O)C1=O)C2
observable: TGI
result: 24.1 µM

Read the next record carefully.
## Task Supply TGI value. Item: O=S(=O)(Nc1nccs1)c1ccc(Nc2nc(-c3cccs3)nc3ccc(I)cc23)cc1
## Result 63.2 µM

* * *

Test system: K-562 leukemia
method-summary: NCI tumour cell line growth inhibition, 48 h
observable: TGI

compound: CCOC(=O)C(/C(=N/NC(=O)OC)C(=O)Nc1ccc(C(C)=O)cc1)c1cnc2ccccc2n1 (stereo not given)
TGI: > 100 µM

compound: CCN(CC)c1c(C(=O)/C=C/c2ccc(F)cc2)c(-c2ccccc2)nn(C)c1=O
TGI: 34.1 µM

compound: CCCCCCCCCCCCCCCC(=O)Nc1ccn(C2CC(OP(=O)(O)OCC3OC(n4cc(F)c(=O)[nH]c4=O)CC3OC(C)=O)C(CO)O2)c(=O)n1 (stereo not given)
TGI: > 100 µM

compound: NS(=O)(=O)c1ccc(N=Nc2c(O)[nH]c3ccc(Cl)cc23)cc1
TGI: > 25 µM

compound: NC(N)=N/N=C(\c1ccc(F)cc1)c1ccc(C(F)(F)F)cc1
TGI: 2.08 µM

compound: CCC(C)CN=C(N)c1ccc(N2CCN(c3ccc(C(N)=NCC(C)CC)cc3)CC2)cc1 (stereo not given)
TGI: 14 µM

## Task Please indicate TGI recorded for COC(=O)C(C)NP(=O)(OCc1ccc(Cn2cnc3c(N)ncnc32)cc1)Oc1ccccc1 (stereo not given)
## Result > 100 µM

## Task In one line, give reported TGI of the entry CC(C)(C(=O)NCC(F)(F)C(F)(F)F)C(=O)N[C@@H]1C(=O)Nc2ccccc2-c2ccccc21 .
## Result > 100 µM

## Task Note TGI for the compound shown: CC1=CC(C)C(C)N(CC2=NCCN2)c2ccccc21 (stereo not given)
## Result > 100 µM

## Task Return TGI (reported value) for this compound: O=c1[nH]c(=O)n(C2CC(O)C(CO)O2)cc1/C=C/Br (stereo not given)
## Result > 100 µM

## Task Answer with the recorded TGI for the compound listed here: COc1ccc(-c2onc(-c3ccc([N+](=O)[O-])cc3)c2C2=NCCCN2)cc1
## Result > 100 µM

## Task Give reported TGI value for COC(=O)c1ccc(C2SC(C)C(=O)N2NC(=O)C(O)c2ccccc2)cc1 (stereo not given)
## Result > 100 µM

## Task Supply recorded TGI for CCOC(=O)c1ccc(N=Cc2ccc(N(CCC#N)CCC#N)cc2)cc1 here.
## Result > 100 µM

## Task Dear colleague, please send me the reported TGI for CN(C)CCNc1ccc2nnn3c4ccc(O)cc4c(=O)c1c23 when you can.
## Result > 37.7 µM

## Task Fill in TGI for record O=C1NC(=NCc2c(Cl)cccc2Cl)S/C1=C\c1ccc2ncccc2c1
## Result > 25 µM

## Task Return TGI (reported value) for this compound: CCCCCCCC/C=C/CCCCCCCC(=O)N(O)C1CC(n2cc(C)c(=O)[nH]c2=O)OC1CO (stereo not given)
## Result 21 µM

## Task Please give the documented TGI of COc1ccc(/C=C/C(=O)c2sc(Nc3ccc([N+](=O)[O-])cc3)nc2C)cc1
## Result 93.6 µM

## Task Report TGI, nothing else, for this compound: CC1CC(c2ccccc2)Nc2nc3ccccc3n21 (stereo not given)
## Result > 100 µM

## Task Answer with the recorded TGI of O=C(Nc1ccccc1C(=O)N/N=C(\c1ccccc1)c1ccccn1)c1ccccc1 only.
## Result > 100 µM

## Task Please indicate TGI recorded for COc1cc(Br)c(CC2C3=C(CCN2C(=O)C2CCC2)CC2(CC3)OCCO2)cc1O (stereo not given)
## Result > 100 µM

* * *

Test system: SK-MEL-5 melanoma
method-summary: NCI tumour cell line growth inhibition, 48 h
observable: TGI (µM)
Please respond with the number in µM and leave the unit unwritten.

Examples from the recorded data:
compound: CN(C)[C@@H]1C(=O)C(C(=O)NCN2CCN(C(=N)N=C(N)N)CC2)=C(O)[C@@]2(O)C(=O)C3=C(O)c4c(O)cccc4[C@@](C)(O)[C@H]3C[C@@H]12
display-unit: µM
TGI: 0.431

compound: CCC1c2[nH]c3ccccc3c2C[C@H]2C(=O)NC(Cc3c[nH]c4ccccc34)C(=O)N12 (some centres not stated)
display-unit: µM
TGI: 31.8

Shift focus to the following entry.
## Task Please give the documented TGI of c1ccc(N=C(N2CCCCC2)N(CCN2CCCCC2)c2ccccc2)cc1
## Result 3.3

* * *

Test system: RPMI-8226 leukemia
method-summary: NCI tumour cell line growth inhibition, 48 h
TGI reference

## Task Given the molecule COc1ccc(/C=C2\C(=O)NC(=O)c3ccccc32)cc1OC , write its reported TGI.
## Result 47.9 µM

## Task Identify the reported TGI for the following entry. C[C@]12CCC(=O)C(O)=C1CCC2=O
## Result > 100 µM

## Task Please report the measured TGI for COC(=O)c1ccc(C2SC(C)C(=O)N2NC(=O)C(O)c2ccccc2)cc1 (configuration not stated)
## Result > 100 µM

## Task Look up TGI of CN(C)c1nc2n(CCO)ccnc-2c(=O)n1 and report it.
## Result > 100 µM

* * *

Test system: HOP-92 NSCLC
method-summary: NCI tumour cell line growth inhibition, 48 h
As shown below, each of these molecules has a reported TGI value.

Worked examples, 5 molecules total:
molecule: CCCCCCC1=NOC(C(c2cc[nH]c2)N(C)[C@H](C(=O)OC)C(C)C)C1 (stereo partly specified)
result: > 100 µM
//
molecule: COc1cc(C(=O)O[C@H]2CCC3CCC2N3C)cc(OC)c1OC (stereo partly specified)
result: > 100 µM
//
molecule: CN(C)C(=S)/N=c1\ssc(=Nc2ccccc2)n1C
result: > 100 µM
//
molecule: CN(C)CCNS(=O)(=O)N(C)C
result: > 100 µM
//
molecule: CC1=CC(C)C(C)N(CC2=NCCN2)c2ccccc21 (stereo unspecified)
result: 45.6 µM

Attention now turns to another entry.
## Task Give recorded TGI. CCOC(=O)CC1C(O)C(=O)N(C)C1c1ccccc1 (stereo unspecified)
## Result > 100 µM

* * *

System: KM12 colon
method-summary: NCI tumour cell line growth inhibition, 48 h
Collected GI50 values appear next to each entry.

chemical-string: CC(C)(C(=O)NCC(F)(F)C(F)(F)F)C(=O)N[C@@H]1C(=O)Nc2ccccc2-c2ccccc21
result: 73.3 µM
--
chemical-string: COc1ccc(/C=C(/C(=O)N2CCCCC2)c2cc(OC)c(OC)c(OC)c2)cc1
result: 0.482 µM
--
chemical-string: O=C([CH-]C(=O)C(F)(F)F)c1ccccc1.O=C([CH-]C(=O)C(F)(F)F)c1ccccc1.[O]=[U+2]=[O]
result: 26 µM

Lab note: next compound to report on.
## Task For the compound C=C(C)[C@@H]1CC[C@]2(C(N)=O)CC[C@]3(C)[C@H](CC[C@@H]4[C@@]5(C)C/C(=C/c6cccnc6)C(=O)C(C)(C)[C@@H]5CC[C@]43C)[C@@H]12 , give its measured GI50 value.
## Result 4.67 µM
